Molecular target: T1, human vasopressin V1a receptor (hV1aR) (human, UniProt P37288 1-418)
T1 construct: vasopressin V1a receptor, human; in membrane preparations; source: HEK293, stably expressing; membrane preparations
T1 sequence (P37288 whole entry): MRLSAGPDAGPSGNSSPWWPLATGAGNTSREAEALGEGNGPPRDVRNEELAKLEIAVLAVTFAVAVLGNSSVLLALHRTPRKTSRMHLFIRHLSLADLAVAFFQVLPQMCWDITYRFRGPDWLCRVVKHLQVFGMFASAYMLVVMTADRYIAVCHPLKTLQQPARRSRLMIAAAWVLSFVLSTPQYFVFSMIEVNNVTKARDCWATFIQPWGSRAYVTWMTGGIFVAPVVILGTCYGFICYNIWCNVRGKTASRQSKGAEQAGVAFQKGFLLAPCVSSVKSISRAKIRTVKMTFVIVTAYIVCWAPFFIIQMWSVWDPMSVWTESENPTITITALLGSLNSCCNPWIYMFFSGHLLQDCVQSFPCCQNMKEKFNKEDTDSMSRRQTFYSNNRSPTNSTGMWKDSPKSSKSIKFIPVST
Test: radioligand binding; displacement of [3H]-OT or [3H]-VP from membrane preparations of HEK293 cells stably expressing the human receptor; dose-response curves in duplicates, at least three independent experiments; Ki >10 µM assigned where <25% of the radioligand was displaced at 10 µM
Settings: one partner purified
pKi: −log10 of the molar value. Positions of bridges follow the written chain, without caps; N, C: chain ends. Non-standard residues stand in square brackets, D forms with d. Groups on a side chain read outwards from the residue. Primed or numbered codes have the meaning given here. No end group written: not given here. εdLys = D-Lys linked through its epsilon amine (k^ε); PEG5′ = PEG5 spacer, as named in the construct; Cy3s = Cy3s fluorophore, as named; Cy5s = Cy5s fluorophore, as named; Orn = NCCC[C@H](N)C(=O)O; Mpa = O=C(O)CCS
Threshold rule: pKi greater than or equal to 7 is met; below that, not met.

Illustrative cases are given below, each with its answer.
binder: [Mpa]YIQNCP[Orn]([PEG5′-PEG5′-εdLys-Cy3s])G (disulfide 1-6) [d(Orn)^8OT‐[PEG5‐PEG5‐k^ε‐Cy3s]^8]
category.label: met
--
binder: [Mpa]YIQNCP[Orn]([dD-PEG5′-εdLys-TAMRA])G (disulfide 1-6) [d(Orn)^8OT‐[d‐PEG5‐k^ε‐TAMRA]^8]
category.label: not met
--
binder: [Mpa]YIQNCP[Orn]([dD-PEG5′-Cy5s])G (disulfide 1-6) [d(Orn)^8OT‐[d‐PEG5‐Cy5s]^8]
category.label: not met

Exercise: Is reported pKi greater than or equal to 7 here: [Mpa]YIQNCP[Orn]([PEG5′-εdLys-Cy3s])G (disulfide 1-6) [d(Orn)^8OT‐[PEG5‐k^ε‐Cy3s]^8]
Solution: met
